Origin of values: patent US20230192890A1

absorbance 490 nm/630 nm for assorted binders
# system-under-test: T1, full-length recombinant human PAD4 (human, UniProt Q9UM07 1-663)
# T1 construct: also called peptidylarginine deiminase 4
# T1 sequence (Q9UM07 whole entry): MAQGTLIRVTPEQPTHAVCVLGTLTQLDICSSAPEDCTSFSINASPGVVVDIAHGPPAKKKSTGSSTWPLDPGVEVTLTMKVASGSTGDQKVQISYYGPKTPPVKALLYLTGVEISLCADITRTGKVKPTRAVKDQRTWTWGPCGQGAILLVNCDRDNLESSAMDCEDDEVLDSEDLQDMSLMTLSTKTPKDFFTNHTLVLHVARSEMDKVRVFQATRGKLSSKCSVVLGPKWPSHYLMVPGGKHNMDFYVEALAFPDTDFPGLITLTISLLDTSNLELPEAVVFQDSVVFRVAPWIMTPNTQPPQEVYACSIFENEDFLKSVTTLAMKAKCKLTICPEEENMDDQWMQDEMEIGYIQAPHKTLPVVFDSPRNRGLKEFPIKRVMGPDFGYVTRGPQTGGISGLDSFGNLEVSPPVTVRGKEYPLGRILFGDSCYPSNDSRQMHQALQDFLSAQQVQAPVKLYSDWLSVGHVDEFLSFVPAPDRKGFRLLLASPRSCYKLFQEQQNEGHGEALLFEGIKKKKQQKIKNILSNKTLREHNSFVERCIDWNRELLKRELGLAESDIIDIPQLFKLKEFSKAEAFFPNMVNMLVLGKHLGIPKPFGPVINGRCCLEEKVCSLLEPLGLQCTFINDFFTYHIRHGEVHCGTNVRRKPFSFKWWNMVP
# assay-name: ELISA, human PAD4 on plate, antibody 0.015625 ug/mL
Please append the unit to your numeric answer.

Known absorbance 490 nm/630 nm results, listed for orientation:
1) E9 (antibody, IgG1, V domains shown, Chicken variable regions in mouse chimeric antibody (IgG1) expression vectors; also called anti-PAD4 antibody E9; A11 etc) VH: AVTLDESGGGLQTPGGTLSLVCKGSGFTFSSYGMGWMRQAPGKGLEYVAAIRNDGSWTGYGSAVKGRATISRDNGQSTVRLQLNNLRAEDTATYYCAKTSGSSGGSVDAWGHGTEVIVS VL: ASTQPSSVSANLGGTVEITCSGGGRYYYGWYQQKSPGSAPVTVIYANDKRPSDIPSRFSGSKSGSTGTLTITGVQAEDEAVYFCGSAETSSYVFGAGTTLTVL : 2.08 OD
2) A11 (antibody, IgG1, V domains shown, Chicken variable regions in mouse chimeric antibody (IgG1) expression vectors; also called anti-PAD4 antibody A11; A11 etc) VH: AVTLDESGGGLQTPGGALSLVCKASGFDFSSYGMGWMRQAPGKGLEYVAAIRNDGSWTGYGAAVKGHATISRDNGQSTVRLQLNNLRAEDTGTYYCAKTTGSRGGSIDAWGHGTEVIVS VL: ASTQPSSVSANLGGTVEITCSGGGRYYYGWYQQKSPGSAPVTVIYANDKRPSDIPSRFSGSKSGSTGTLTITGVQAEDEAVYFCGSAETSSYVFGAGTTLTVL : 2.08 OD

Okay, now this binder:
Input line: Which measured absorbance 490 nm/630 nm value corresponds to G8 (antibody, IgG1, V domains shown, Chicken variable regions in mouse chimeric antibody (IgG1) expression vectors; also called anti-PAD4 antibody G8; A11 etc) VH: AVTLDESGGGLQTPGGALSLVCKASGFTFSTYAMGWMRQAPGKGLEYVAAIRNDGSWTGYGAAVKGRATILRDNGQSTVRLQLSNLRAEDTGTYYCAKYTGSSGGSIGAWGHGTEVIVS VL: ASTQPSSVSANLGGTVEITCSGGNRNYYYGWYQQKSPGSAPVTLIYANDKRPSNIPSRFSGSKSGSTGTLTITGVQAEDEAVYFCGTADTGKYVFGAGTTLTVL ?
Output line: 2.08 OD
